From: the supplement of paper PMC10567573

B1: PBXIP1 (parent)
chain: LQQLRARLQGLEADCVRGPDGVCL

variants of: B1; assay: protein stability index of a GFP-peptide fusion (GPS, HEK-293T) (PSI 1-6); higher = more stable; conditions: c terminus: a fixed tail appended;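 further: lentivirally expressed fusions sorted by FACS into six bins by GFP to DsRed ratio, PSI derived from sequencing read proportions per bin multiplied by bin number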
Value Kind: protein stability index

Worked cases, answers included:
Looking up Q2Y , I see its protein stability index listed as 1.24

Looking up L4P , I see its protein stability index listed as 2.42

Looking up R17W , I see its protein stability index listed as 1.81

***
Looking up V16S , I see its protein stability index listed as 1.84

Looking up A6F , I see its protein stability index listed as 1.95

Looking up A6N , I see its protein stability index listed as 2.19

Looking up C23S , I see its protein stability index listed as 1.96
